# protocolText: Approximate measured solubility in solvents at 25° C.
# Type: physicochemical
# conditions: ethyl acetate, 25 °C, organic solvent or mixture, thermodynamic from solid, at least 24 hours
# Experimental: The solubility of Form A was investigated in a number of solvents at ambient conditions. […] In addition, a known volume of filtrate was evaporated to dryness and the weight of the residue was measured. The solubility of Form B was investigated in a number of solvents at ambient conditions. […] In addition, a known volume of filtrate was evaporated to dryness and the weight of the residue was measured.
measuredQuantity: solubility (mg/mL)
I only need the number, in mg/mL, no unit after it.

Recorded result, Cc1cccc2nc(C)n(C3CCC(=O)NC3=O)c(=O)c12 (single isomer, unassigned) [Form A] , solubility: 0.67

----------
# protocolText: Approximate measured solubility in solvents at 25° C.
# Format: physicochemical
# conditions: absolute ethanol, 25 °C, organic solvent or mixture, thermodynamic from solid, at least 24 hours
measuredQuantity: solubility (µg/mL)
I only need the number, in µg/mL, no unit after it.

Recorded result, Cc1cccc2nc(C)n(C3CCC(=O)NC3=O)c(=O)c12 (single isomer, unassigned) [Form A] , solubility: 500
